The origin of these recorded values is PubChem BioAssay (NCI).

system: NCI-H460 lung; experiment: NCI-60 one-dose screen, 48 h (100 = growth as untreated, 0 = no growth, -100 = all killed); details: 10 µM unless noted
About 83,000 compounds went through this panel and 20% of them were active in at least one assay; those are over-represented in the sample as a whole.
Short version: growth at least 70% is Met, less is Not met.

Record excerpt, results attached:
- molecule: "COc1ccc2nc3ccccc3c(NCc3ccc(F)cc3)c2c1"
  class-label: "Not met"
- molecule: "C/C(=C(/c1ccc(Cl)cc1)c1ccc(OCCCN(C)C)cc1)c1ccc(Cl)cc1"
  class-label: "Met"
- molecule: "C#CCOc1ccc2ncnc(Nc3cccc(NC(=O)CCl)c3)c2c1"
  class-label: "Not met"
- molecule: "CC(C)CCC[C@@H](C)C1CCC2C3CCC4=C/C(=N/OCCN(C)C)CC[C@]4(C)C3CC[C@@]21C (stereo not given in full)"
  class-label: "Met"

Kindly review the next molecule as well.
Problem: Hi team, for `CN1CCN(c2ccc(NC(=O)c3cncnc3Nc3ccc4c(ccn4Cc4cccc(F)c4)c3)cc2)CC1` , is the recorded growth at or above 70%?
Result: Not met

---

Tested on: HOP-92 NSCLC
Test: NCI-60 one-dose screen, 48 h (100 = growth as untreated, 0 = no growth, -100 = all killed)
Settings: 10 µM unless noted
Method: Growth inhibition of the HOP-92 human Non-Small Cell Lung tumor cell line is measured as a screen for anti-cancer activity. Cells are grown in 96 well plates and exposed to the test compound for 48 hours. Compounds are tested at a single concentration, which is 10^-5 M for most compounds. The reported endpoint is percent growth (GI% or GIPRCNT), where numbers from 0 - 100% represent growth inhibition, and numbers from -100% - 0 represent cell death. […]
The panel holds about 83,000 compounds, 20% with a hit somewhere; the sample as a whole holds those more often.
experimental-readout: growth (%)
I only need the number, in %, no unit after it.

Use these answered entries as a reference point.
- compound: "Cc1cscc(C)c1=S"
  experimental-readout: "growth"
  recorded-value: 108
- compound: "COC(=O)/C(CCC=C(C)C)=C1\\[C@@H](OC(C)=O)C[C@@]2(C)[C@H]1CC(=O)[C@H]1[C@@]3(C)CCC(N4CCCC4)[C@@H](C)[C@@H]3CC[C@@]12C (some centres undefined)"
  experimental-readout: "growth"
  recorded-value: 77.2
- compound: "O=C(O)CCCc1cnc2c3sccc3nc(SCc3c(Cl)cccc3Cl)n12"
  experimental-readout: "growth"
  recorded-value: 58.7
- compound: "O=C(Nc1ccc(F)cc1)Nc1ccccc1CNc1nc(Nc2ccc(OCCN3CCCC3)cc2)ncc1Cl"
  experimental-readout: "growth"
  recorded-value: 52.2
- compound: "CC/C(Cc1ccccc1)=C(\\c1ccc(OCCN2CCCCCC2)cc1)c1ccc(OC(=O)NCc2ccccc2)cc1"
  experimental-readout: "growth"
  recorded-value: 56

Problem: Fill in the blank: the reported growth of `CCN(CC)c1ccc(/C=N/NC(=O)c2ccc(Nc3ccnc(C(F)(F)F)c3)cc2)c(O)c1` is ____.
Result: 42.4

Problem: Okay, and `CC/C=C1/C(=O)C=C[C@@H]1C/C=C\CCCC(=O)OC` ?
Result: 91.3

---

tested on: NCI-H460 lung; test: NCI-60 one-dose screen, 48 h; conditions: 10 µM unless noted
Compounds without any hit were thinned out: in the full panel of roughly 83,000, 20% have a hit. Activity calls are given as the source filed them. Rule for the calls: active = growth percent below 10; inactive = the rest.
Would you mind answering with one of these outcomes? True = active, False = inactive

Record excerpt, results attached:
- compound: "Cn1cc(-c2csc(-c3cn(C(=O)OC(C)(C)C)c4ccccc34)n2)c2ccnc(Cl)c21"
  class-label: "False"
- compound: "CCOC(=O)Nc1nc2ccc(SCC(C)C)cc2s1"
  class-label: "False"
- compound: "O=c1oc2c(cnc3ccccc32)cc1-c1cccs1"
  class-label: "False"
- compound: "CN1CCCc2cc(/C=C3/SC(=S)N(CCc4ccc(O)cc4)C3=O)ccc21"
  class-label: "False"
- compound: "O=C(N/N=C/c1ccc(O)cc1O)c1ccc(Nc2ccnc(C(F)(F)F)c2)cc1"
  class-label: "False"

Problem: Fill in: this test's call for `CN(C)c1ccc(/C=C/C(=O)c2ccccc2)cc1` is ___
Result: False

Problem: Okay, and COc1cc(OC)cc(C2C(C#N)=C(N)Oc3c2ccc2ccc(O)cc32)c1 (configuration not stated) ?
Result: True

---

tested on: 786-0 renal; experiment: NCI-60 one-dose screen, 48 h (100 = growth as untreated, 0 = no growth, -100 = all killed); details: 10 µM unless noted
About 83,000 compounds went through this panel and 20% of them were active in at least one assay; those are over-represented in the sample as a whole.
Catalogue of growth readings, one per entry.
I only need the number, in %, no unit after it.

Use these answered entries as a reference point.
- compound: "C=NNc1ccccc1"
  growth [%]: 103
- compound: "CCOC(=O)C1=C(C)N=C2SC=C(c3ccccc3)N2[C@H]1c1cn[nH]c1-c1ccc(Cl)cc1"
  growth [%]: 49.6
- compound: "CN1CCN(Cc2cc(NC(=O)c3cccc(C#Cc4cccc5[nH]nc(N)c45)c3)cc(C(F)(F)F)c2)CC1"
  growth [%]: 24.9
- compound: "COc1cc(-c2nc3ccc(C)cc3[nH]2)ccc1OCC(=O)N=Nc1c(O)[nH]c2ccc(Cl)cc12"
  growth [%]: -82.5
- compound: "CC(C)CCC[C@@H](C)C1CCC2C3CCC4=C/C(=N/OCCN(C)C)CC[C@]4(C)C3CC[C@@]21C (stereo not given in full)"
  growth [%]: 76

Problem: Fill in the blank: the reported growth of `C#CCn1cnc2c(Nc3cccc(NC(=O)CCl)c3)ncnc21` is ____.
Result: 49.2

Problem: Okay, and `CNCc1cccc2c1OCCOCCN(C)C(=O)CN(C)S(=O)(=O)c1ccc(cc1)-c1cnc(N)c(n1)C(=O)N2` ?
Result: -40.3

Problem: Okay, and `CCOC(=O)c1c2c(n3c1NCC3)-c1ccccc1C2=O` ?
Result: 94.3

Problem: Okay, and `Cn1c(O)c(C(/C=C/c2ccccc2)=Nc2ccccc2N)c(=O)n(C)c1=O` ?
Result: 103

Problem: Okay, and `COC(=O)c1ccc2c(c1)c1c(C)c3ccncc3c(C)c1n2C` ?
Result: 28.5

---

system: A549/ATCC NSCLC; test: NCI-60 one-dose screen, 48 h (100 = growth as untreated, 0 = no growth, -100 = all killed); settings: 10 µM unless noted
Compounds without any hit were thinned out: in the full panel of roughly 83,000, 20% have a hit.
Returns: string. Value is Y if measured growth is below 80%, and N if it is greater than or equal to it.

Record excerpt, results attached:
- molecule: "CCN1C(=S)N(CC)C2C1NC(=S)N2/N=C/C=C/c1ccccc1OC (stereo not given)"
  class-label: "Y"
- molecule: "C[C@@H](CO)[C@@H]1CC[C@]2(C(=O)N3CCN(C)CC3)CC[C@]3(C)[C@H](CC[C@@H]4[C@@]5(C)CC[C@H](O)C(C)(C)[C@@H]5CC[C@]43C)[C@@H]12"
  class-label: "N"
- molecule: "CCCCCCNc1nc(NCCCCCC)c2[nH]c(NCCCCCC)nc2n1"
  class-label: "Y"

Problem: Criterion: growth strictly below 80%. Is it met by `CCCCn1sc(=O)n(Cc2ccc(CNC(=O)OCc3ccc4c(Cl)cc(Cl)c(O)c4n3)cc2)c1=O` ?
Result: Y

Problem: Okay, and `C=NNc1ccccc1` ?
Result: N

---

test system: U251 CNS; assay: NCI-60 one-dose screen, 48 h (100 = growth as untreated, 0 = no growth, -100 = all killed); settings: 10 µM unless noted
About 83,000 compounds went through this panel and 20% of them were active in at least one assay; those are over-represented in the sample as a whole.
Short version: growth at least 90% is 1, less is -1.

- compound: "CCN1C(=O)N(CC)C2C1NN=c1s/c(=C\\c3cc4ccccc4[nH]3)c(=O)n12 (stereo not given)"
  class-label: -1
- compound: "C=CC(=O)NCCOc1cccc(Nc2cc(NCCCNC(=O)C3CCC3)c(Br)cn2)c1"
  class-label: -1
- compound: "O=C(N=Nc1c(O)[nH]c2ccccc12)Nc1ccc(Cl)cc1"
  class-label: 1

Kindly review the next compound as well.
Problem: Hi team, for `COc1ccc(C(C)=O)cc1S(N)(=O)=O` , is the recorded growth at or above 90%?
Result: 1

---

system: SF-295 CNS; assay: NCI-60 one-dose screen, 48 h (100 = growth as untreated, 0 = no growth, -100 = all killed); conditions: 10 µM unless noted
This is part of a sample that, as a whole, favours compounds with a hit. Of some 83,000 tested, about 20% had one in any assay.
experimental-readout: growth (%)
I only need the number, in %, no unit after it.

Use these answered entries as a reference point.
- compound: "COc1cc(N2C(=O)[C@H](c3ccccc3)C2c2ccc(SC)cc2)cc(OC)c1OC (some centres undefined)"
  growth [%]: -6.29
- compound: "CC1=C(C(=O)n2c3ccccc3c3ccccc32)C(c2cccc([N+](=O)[O-])c2)C(C(=O)n2c3ccccc3c3ccccc32)=C(C)N1"
  growth [%]: 102
- compound: "COc1ccc(/C(C)=C(\\c2ccc(OCCN3CCCCCC3)cc2)c2ccc(OC(=O)c3ccccc3)cc2)cc1"
  growth [%]: 20.6
- compound: "CCCn1c(=S)sc2c1nc(C)n1c(Nc3ccccc3)nnc21"
  growth [%]: 51.7
- compound: "CCCCCCCC/C=C\\CCCCCCCCOc1ccc(CC(=O)NCC[N+](C)(C)C)cc1"
  growth [%]: 77.8

Problem: Fill in the blank: the reported growth of `O=C(CN1CCN(c2cc3c(cc2F)c(=O)c(C(=O)O)cn3C2CC2)CC1)N/N=C/c1ccncc1` is ____.
Result: 96.6

Problem: Okay, and `COC(=O)Cc1nc(C#N)c(N(C)C)o1` ?
Result: 100

Problem: Okay, and `COc1ccc(Nc2ncccc2NC(=O)c2cn(Cc3cccc(Oc4ccccc4)c3)nn2)cc1OC` ?
Result: 84.2

Problem: Okay, and Cc1ccc2[nH]c(=O)c3c(c2c1)OC(N)=C(C#N)C31C(=O)c2cccc3cccc1c23 (centres undefined) ?
Result: 104
